Where these numbers come from: paper PMC4506051

- test-description: Exploratory trial: amount of rikkunshito ingredients in urine
- Type: in vivo, human
- condition-notes: 4–8 h after single oral rikkunshito 7.5 g; mean ± S.D., n = 4
Mark Yes only for Amount in urine, 4–8 h values smaller than 80 ng; exact matches and larger values are No.

compound	assigned-class
COc1ccc([C@@H]2CC(=O)c3c(O)cc(O[C@@H]4O[C@H](CO[C@@H]5O[C@@H](C)[C@H](O)[C@@H](O)[C@H]5O)[C@@H](O)[C@H](O)[C@H]4O)cc3O2)cc1O [Hesperidin]	Yes
CCCCC/C=C/C(=O)CCc1ccc(O)c(OC)c1 [[6]-Shogaol, [6]-Shogaol]	Yes
CC(C)=CCC[C@](C)(O[C@@H]1O[C@H](CO[C@@H]2OC[C@H](O)[C@H](O)[C@H]2O)[C@@H](O)[C@H](O)[C@H]1O)[C@H]1CC[C@]2(C)[C@@H]1[C@H](O)C[C@@H]1[C@@]3(C)CC[C@H](O[C@@H]4O[C@H](CO)[C@@H](O)[C@H](O)[C@H]4O[C@@H]4O[C@H](CO)[C@@H](O)[C@H](O)[C@H]4O)C(C)(C)[C@@H]3CC[C@]12C [Ginsenoside Rb2]	No
COc1c(CC=C(C)C)c(O)cc2oc(=O)c(-c3ccc(O)cc3O)cc12 [Glycycoumarin]	No
CNCC(O)c1ccc(O)cc1 (stereo not shown) [Synephrine]	No

---

- test-description: clinical
- condition-notes: human, in vivo, po, t 1/2, rikkunshito 5.0 g single oral, n = 19; geometric mean (95% CI)

compound	unit	half-life
C=C(CC[C@@H](C(=O)O)[C@H]1[C@H](O)C[C@@]2(C)C3=C(CC[C@]12C)[C@@]1(C)CC[C@H](OC(C)=O)C(C)(C)[C@@H]1CC3)C(C)C [Pachymic acid]	h	16.2

---

- test-description: Randomized crossover quantitative trial: plasma pharmacokinetics of nine ingredients after rikkunshito 2.5, 5.0 or 7.5 g
- condition-notes: human, plasma, po, 5 g, t 1/2, rikkunshito 5.0 g single oral, n = 19; geometric mean (95% CI)
- Experimental: The first trial was a nonrandomized, open-label, one-period design. The second trial was a randomized, open-label, three-arm, three-period design (Fig 1). […] The safety endpoint was evaluated in all volunteers. […] In each stage during the 48-h period following rikkunshito administration, the physician monitored the patient for subjective symptoms, objective findings, swelling, body temperature (axillary), blood pressure (sitting), and pulse (sitting). […]
test-readout: log10 half-life (log10 of the value in h)

                           structure_smiles     test_readout  reported
0         O=C(/C=C/c1ccc(O)cc1)c1ccc(O)cc1O  log10 half-life      0.61
1             O=C(O)/C=C/C#CC#C/C=C/c1ccco1  log10 half-life     -0.20
2  COc1ccc(-c2oc3c(OC)c(OC)c(OC)c(OC)c3c(=O)c2OC)cc1OC  log10 half-life      0.18
3  O=C1C[C@@H](c2ccc(O)cc2)Oc2cc(O)cc(O)c21  log10 half-life      0.65
4  CC1(C)[C@@H](O)CC[C@]2(C)[C@H]3C(=O)C=C4[C@@H]5C[C@@](C)(C(=O)O)CC[C@]5(C)CC[C@@]4(C)[C@]3(C)CC[C@@H]12  log10 half-life      0.95

---

- test-description: Randomized crossover quantitative trial: plasma pharmacokinetics of nine ingredients after rikkunshito 2.5, 5.0 or 7.5 g
- condition-notes: human, plasma, oral, t max, after rikkunshito administration; dose not given
test-readout: Tmax

compound	test-readout	reported
CC1(C)[C@@H](O)CC[C@]2(C)[C@H]3C(=O)C=C4[C@@H]5C[C@@](C)(C(=O)O)CC[C@]5(C)CC[C@@]4(C)[C@]3(C)CC[C@@H]12 [18β-Glycyrrhetinic acid]	Tmax	8 h

---

- test-description: Formation of ingredients derived from rikkunshito in formulation, blood, and urine (S11 Table summary)
- condition-notes: after rikkunshito administration; per ingredient in the formulation; BQL = below the quantification limit
test-readout: Formation of ingredients: form found in Urine

structure-smiles	reported
C=C(CC[C@@H](C(=O)O)[C@H]1[C@H](O)C[C@@]2(C)C3=C(CC[C@]12C)[C@@]1(C)CC[C@H](OC(C)=O)C(C)(C)[C@@H]1CC3)C(C)C	BQL
C[C@@H]1O[C@@H](OC[C@H]2O[C@@H](Oc3cc(O)c4c(c3)O[C@H](c3ccc(O)cc3)CC4=O)[C@H](O)[C@@H](O)[C@@H]2O)[C@H](O)[C@H](O)[C@H]1O	Naringenin
O=C1C[C@@H](c2ccc(O)cc2)Oc2cc(O)cc(O)c21	Naringenin
COc1ccc(-c2cc(=O)c3c(OC)c(OC)c(OC)c(OC)c3o2)cc1OC	BQL
COc1ccc(-c2oc3c(OC)c(OC)c(OC)c(OC)c3c(=O)c2OC)cc1OC	BQL

---

- test-description: Randomized crossover quantitative trial: plasma pharmacokinetics of nine ingredients after rikkunshito 2.5, 5.0 or 7.5 g
- condition-notes: human, plasma, po, 5 g, C max, rikkunshito 5.0 g single oral, n = 19; geometric mean (95% CI)
We label by threshold. Values of Cmax strictly beneath 0.9 ng/mL are satisfied. Values of 0.9 ng/mL and up are not satisfied.

compound	assigned-class
O=C(O)/C=C/C#CC#C/C=C/c1ccco1 [Atractylodin carboxylic acid]	not satisfied
O=C(/C=C/c1ccc(O)cc1)c1ccc(O)cc1O [Isoliquiritigenin]	satisfied
COc1ccc(-c2oc3c(OC)c(OC)c(OC)c(OC)c3c(=O)c2OC)cc1OC [Heptamethoxyflavone, 3,3′,4′,5,6,7,8-heptamethoxyflavone]	satisfied
CC1(C)[C@@H](O)CC[C@]2(C)[C@H]3C(=O)C=C4[C@@H]5C[C@@](C)(C(=O)O)CC[C@]5(C)CC[C@@]4(C)[C@]3(C)CC[C@@H]12 [18β-Glycyrrhetinic acid]	not satisfied

---

# Amount in enzyme-treated urine, 4–8 h values compiled below
- test-description: Exploratory trial: ingredients in β-glucuronidase (enzyme)-treated urine
- Type: in vivo, human
- condition-notes: β-glucuronidase-treated; 4–8 h after rikkunshito 7.5 g; mean ± S.D., n = 4
test-readout: Amount in enzyme-treated urine, 4–8 h (ng)

                                   compound                           test_readout  reported
0  COc1c(CC=C(C)C)c(O)cc2oc(=O)c(-c3ccc(O)cc3O)cc12  Amount in enzyme-treated urine, 4–8 h      3260
1         O=C(/C=C/c1ccc(O)cc1)c1ccc(O)cc1O  Amount in enzyme-treated urine, 4–8 h      5630
2  CCCCC/C=C/C(=O)CCc1ccc(O)c(OC)c1 [[6]-Shogaol, [6]-Shogaol]  Amount in enzyme-treated urine, 4–8 h       392

---

- test-description: Randomized crossover quantitative trial: plasma pharmacokinetics of nine ingredients after rikkunshito 2.5, 5.0 or 7.5 g
- condition-notes: human, in vivo, po, 5 g
- Description: The first trial was a nonrandomized, open-label, one-period design. The second trial was a randomized, open-label, three-arm, three-period design (Fig 1). […] The safety endpoint was evaluated in all volunteers. […] In each stage during the 48-h period following rikkunshito administration, the physician monitored the patient for subjective symptoms, objective findings, swelling, body temperature (axillary), blood pressure (sitting), and pulse (sitting). […]
test-readout: Cmax (ng/mL)

                                  compound  test_readout  reported
0  C/C=C/C#CC#C/C=C/c1ccco1 [Atractylodin]          Cmax      1.02

---

- test-description: Randomized crossover quantitative trial: plasma pharmacokinetics of nine ingredients after rikkunshito 2.5, 5.0 or 7.5 g
- condition-notes: rikkunshito 7.5 g single oral, n = 19; geometric mean (95% CI)
test-readout: t 1/2

In [3]: df
Out[3]:
                           structure_smiles  test_readout               reported
0                  C/C=C/C#CC#C/C=C/c1ccco1         t 1/2   0.888 (0.687–1.15) h
1  C=C(CC[C@@H](C(=O)O)[C@H]1[C@H](O)C[C@@]2(C)C3=C(CC[C@]12C)[C@@]1(C)CC[C@H](OC(C)=O)C(C)(C)[C@@H]1CC3)C(C)C         t 1/2     20.5 (14.4–29.2) h
2  O=C1C[C@@H](c2ccc(O)cc2)Oc2cc(O)cc(O)c21         t 1/2     5.38 (3.31–8.76) h
3         O=C(/C=C/c1ccc(O)cc1)c1ccc(O)cc1O         t 1/2     3.26 (1.69–6.31) h
4             O=C(O)/C=C/C#CC#C/C=C/c1ccco1         t 1/2  0.663 (0.560–0.790) h
5  CC1(C)[C@@H](O)CC[C@]2(C)[C@H]3C(=O)C=C4[C@@H]5C[C@@](C)(C(=O)O)CC[C@]5(C)CC[C@@]4(C)[C@]3(C)CC[C@@H]12         t 1/2     11.7 (8.90–15.3) h
6  COc1ccc(-c2oc3c(OC)c(OC)c(OC)c(OC)c3c(=O)c2OC)cc1OC         t 1/2     1.51 (1.15–1.98) h
